# pest or weed control at 8 g/ha per record follows
Test system: Abutilon theophrasti (ABUTH)
assay_explanation: Biological Example 1 glasshouse assay for herbicidal activity
Format: in vivo
details: post-emergence, 312 h, post-emergence, 8 g/ha, 13 days after application, read-out: percentage phytotoxicity ABUTH

{"columns": ["compound", "unit_tag", "pest or weed control at 8 g/ha"],
 "data": [
  ["CC#Cc1cc(F)c(C2=C(OC(=O)SCC)C3CCC(C3)C2=O)c(OC)c1 (stereo not shown)", "%", 10],
  ["CC#Cc1cc(F)c(C2=C(OC(=O)C(C)(C)C)C3CCC(C3)C2=O)c(OC)c1 (stereo not shown) [Compound P1]", "%", 0],
  ["CC#Cc1cc(F)c(C2=C(OC(=O)OC(C)C)C3CCC(C3)C2=O)c(OC)c1 (stereo not shown)", "%", 10],
  ["CC#Cc1cc(F)c(C2=C(OC(=O)c3ccccc3)C3CCC(C3)C2=O)c(OC)c1 (stereo not shown)", "%", 0],
  ["CC#Cc1cc(F)c(C2C(=O)C3CCC(C3)C2=O)c(OC)c1 (stereo not shown)", "%", 0],
  ["CC#Cc1cc(F)c(C2=C(OC(=O)OCC)C3CCC(C3)C2=O)c(OC)c1 (stereo not shown) [Compound P2]", "%", 10],
  ["C#Cc1cc(F)c(C2C(=O)C3CCC(C3)C2=O)c(OC)c1 (stereo not shown)", "%", 50]
]}

###

Tested on: Echinochloa crus-galli (ECHCG)
assay_explanation: Biological Example 1 glasshouse assay for herbicidal activity
Type: in vivo
details: Echinochloa crus-galli, post-emergence, 312 h, post-emergence, 250 g/ha, 13 days after application; read-out: percentage phytotoxicity ECHCG
measured_property: pest or weed control at 250 g/ha (%)

{"columns": ["compound", "unit_tag", "assay_value"],
 "data": [
  ["CC#Cc1cc(F)c(C2C(=O)C3CCC(C)(C2=O)C3(C)C)c(OC)c1 (stereo not drawn)", "%", 100],
  ["CC#Cc1cc(F)c(C2C(=O)C3CCC(C3)C2=O)c(OCC)c1 (stereo not drawn)", "%", 100],
  ["CC#Cc1cc(F)c(C2C(=O)C3CCC(C3)C2=O)c(OCC(F)(F)F)c1 (stereo not drawn)", "%", 100],
  ["CC#Cc1cc(F)c(C2=C(OC(=O)OC(C)C)C3CCC(C3)C2=O)c(OC)c1 (stereo not drawn)", "%", 100],
  ["CC#Cc1cc(F)c(C2C(=O)C3CCC(C3)C2=O)c(OC(F)F)c1 (stereo not drawn)", "%", 100],
  ["CC#Cc1cc(F)c(C2=C(OC(=O)c3ccccc3)C3CCC(C3)C2=O)c(OC)c1 (stereo not drawn)", "%", 100],
  ["CC#Cc1cc(Br)c(C2C(=O)C3CCC(C3)C2=O)c(OC)c1 (stereo not drawn)", "%", 100],
  ["C#Cc1cc(F)c(C2C(=O)C3CCC(C3)C2=O)c(OC)c1 (stereo not drawn)", "%", 100],
  ["CC#Cc1cc(F)c(C2=C(OC(=O)SCC)C3CCC(C3)C2=O)c(OC)c1 (stereo not drawn)", "%", 100],
  ["CC#Cc1cc(F)c(C2C(=O)C3CCC(C)(C2=O)C3(C)C)c(OCCOC)c1 (stereo not drawn)", "%", 0],
  ["CC#Cc1cc(F)c(C2C(=O)C3CCC(C3)C2=O)c(OCCOC)c1 (stereo not drawn)", "%", 100],
  ["COc1cc(C#CCl)cc(F)c1C1C(=O)C2CCC(C2)C1=O (stereo not drawn)", "%", 70]
]}
